# targetEntity: human TASK-1 (Homo sapiens (Human), UniProt O14649)
# Sequence (O14649 whole entry): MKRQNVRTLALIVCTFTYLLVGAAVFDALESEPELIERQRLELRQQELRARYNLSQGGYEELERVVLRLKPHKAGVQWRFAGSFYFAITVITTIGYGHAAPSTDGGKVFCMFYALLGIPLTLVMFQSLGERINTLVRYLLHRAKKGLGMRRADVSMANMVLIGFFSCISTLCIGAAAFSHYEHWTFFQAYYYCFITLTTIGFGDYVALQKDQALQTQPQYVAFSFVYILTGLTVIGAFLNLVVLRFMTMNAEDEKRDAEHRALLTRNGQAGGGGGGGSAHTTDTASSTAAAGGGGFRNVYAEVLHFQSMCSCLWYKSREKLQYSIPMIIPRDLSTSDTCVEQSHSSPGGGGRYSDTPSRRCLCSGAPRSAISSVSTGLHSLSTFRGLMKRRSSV
# assayComment: Inhibition of recombinant TASK-1 in stably transfected CHO cells (voltage-sensitive dye, KCl depolarization)
# Format: cell-based
# setupConditions: depolarization by 40 mM potassium chloride
recordedMetric: pIC50
// pIC50 is dimensionless: -log10 of concentration (M)

Past entries and their recorded results:
{"compound": "Cc1sc(C(=O)N2C3CCC2CN(Cc2c(-c4ccc(Cl)cc4)nc4ncccn24)C3)nc1Br", "recordedMetric": "pIC50", "numericReadout": 5.89}
{"compound": "O=C(C1CCCC1)N1CC2CCC1CN2Cc1c(-c2ccc(Cl)cc2)nc2ncccn12 (centres unmarked)", "recordedMetric": "pIC50", "numericReadout": 5.82}
{"compound": "CC(C)c1ccc(-c2nc3ncccn3c2CN2CC3CCC2CN3C(=O)c2ncoc2C2CC2)cc1 (single isomer, unassigned) [Example 27]", "recordedMetric": "pIC50", "numericReadout": 5.92}
{"compound": "COc1ccc(F)c(C(=O)N2CC3CCC2CN3Cc2c(-c3ccc(Br)cc3)nc3ncccn23)n1 (centres unmarked)", "recordedMetric": "pIC50", "numericReadout": 6.09}

--- query ---
Query: Please give measured pIC50 of the following entry: O=C(c1ccccc1F)N1CC2CCC1CN2Cc1c(-c2ccc(Cl)cc2)nc2ncccn12 (centres unmarked) [Example 42]
Response: 6.00

----------
Quick list: pIC50 per entry.
# targetEntity: human TASK-1 (Homo sapiens (Human), UniProt O14649)
# assayComment: Inhibition of recombinant TASK-1 in stably transfected CHO cells (voltage-sensitive dye, KCl depolarization)
# Format: cell-based
# setupConditions: depolarization by 40 mM potassium chloride
As a rule, pIC50 stands for the negative log10 of the concentration, concentration in M.

Observe how each entry below is paired with its result.
{"molecule": "O=C(OC1CCCCC1)N1C2CCC1CN(Cc1c(-c3ccc(Cl)cc3)nc3ncccn13)C2", "pIC50": 5.70}
{"molecule": "O=C(c1ccccc1F)N1CC2CCC1CN2Cc1c(-c2ccc(Cl)cc2)nc2ncccn12 (stereo not drawn) [Example 39]", "pIC50": 5.85}
{"molecule": "COc1ccc(Cl)c(C(=O)N2CC3CCC2CN3Cc2c(-c3ccc(Cl)cc3)nc3ncccn23)n1 (stereo not drawn) [Example 45]", "pIC50": 5.74}
{"molecule": "COc1cccc(C(=O)N2C3COCC2CN(Cc2c(-c4ccc(Cl)cc4)nc4ncccn24)C3)c1", "pIC50": 5.15}
{"molecule": "Cc1cccc(C)c1NC(=O)N1C2CCC1CN(Cc1c(-c3ccc(Cl)cc3)nc3ncccn13)C2", "pIC50": 4.82}
{"molecule": "CC(C)NC(=O)N1C2CCC1CN(Cc1c(-c3ccc(Cl)cc3)nc3ncccn13)C2", "pIC50": 5.11}
{"molecule": "COc1ccc(Cl)c(C(=O)N2C3CCC2CN(Cc2c(-c4ccc(C5CC5)cc4)nc4ncccn24)C3)n1", "pIC50": 6.49}
{"molecule": "O=C(c1ncoc1C1CC1)N1C2CCC1CN(Cc1c(-c3ccc(C4CC4)cc3)nc3ncccn13)C2", "pIC50": 5.35}
{"molecule": "CC(C)(C)OC(=O)N1C2CCC1CN(Cc1c(-c3ccc(Cl)cc3)nc3ncccn13)C2", "pIC50": 5.85}
{"molecule": "O=C(N1CCSCC1)N1C2CCC1CN(Cc1c(-c3ccc(Cl)cc3)nc3ncccn13)C2", "pIC50": 5.30}

With those in mind, consider the next molecule.
Query: Recall and state the measured pIC50 for Cc1nc(C)c(C(=O)N2C3CCC2CN(Cc2c(-c4ccc(Cl)cc4)nc4ncccn24)C3)o1 .
Response: 5.48

----------
Recorded measurements of IC50, one per entry
# targetEntity: human TASK-3 (Homo sapiens (Human), UniProt Q9NPC2)
# Sequence (Q9NPC2 whole entry): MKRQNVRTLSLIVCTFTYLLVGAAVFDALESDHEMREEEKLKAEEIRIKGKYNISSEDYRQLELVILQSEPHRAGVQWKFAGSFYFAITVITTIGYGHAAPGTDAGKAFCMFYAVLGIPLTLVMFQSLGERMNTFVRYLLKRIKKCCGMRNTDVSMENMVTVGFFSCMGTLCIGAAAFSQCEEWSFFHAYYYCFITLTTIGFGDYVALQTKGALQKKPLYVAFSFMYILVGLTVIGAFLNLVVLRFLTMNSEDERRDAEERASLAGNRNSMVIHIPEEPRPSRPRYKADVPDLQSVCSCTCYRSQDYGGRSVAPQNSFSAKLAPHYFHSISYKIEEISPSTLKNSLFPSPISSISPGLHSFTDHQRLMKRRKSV
# assayComment: Inhibition of recombinant TASK-3 in stably transfected CHO cells (voltage-sensitive dye, KCl depolarization)
# Type: cell-based
# setupConditions: depolarization by 40 mM potassium chloride
# Description: B-2. Inhibition of Recombinant TASK-1 and TASK-3 In Vitro The investigations on the inhibition of the recombinant TASK-1 and TASK-3 channels were conducted using stably transfected CHO cells. […] 6 (5), 305-312 (2001); Molecular Devices FLIPR Application Note: Measuring membrane potential using the FLIPR® membrane potential assay kit on Fluorometric Imaging Plate Reader (FLIPR®) systems, http://www.moleculardevices.com/reagents-supplies/assay-kits/ion-channels/flipr-membrane-potential-assay-kits]. […]

Query: Give recorded IC50. O=C(c1ncoc1C1CC1)N1C2COCC1CN(Cc1c(-c3ccc(Cl)cc3)nc3ncccn13)C2
Response: 140 nM

Query: Item COc1ccc(F)c(C(=O)N2C3COCC2CN(Cc2c(-c4ccc(Cl)cc4)nc4ncccn24)C3)n1 : provide IC50
Response: 19 nM

----------
# targetEntity: human TASK-1 (Homo sapiens (Human))
# assayComment: Inhibition of recombinant TASK-1 in stably transfected CHO cells (voltage-sensitive dye, KCl depolarization)
# Type: cell-based
# setupConditions: depolarization by 40 mM potassium chloride
recordedMetric: IC50 (nM)
Report only the number, with the unit nM understood.

{"smilesEntry": "COc1ccc(Cl)c(C(=O)N2C3COCC2CN(Cc2c(-c4ccc(Cl)cc4)nc4ncccn24)C3)n1", "unitsText": "nM", "numericReadout": 7600}

Query: Give IC50 for COc1ccc(F)c(C(=O)N2C3COCC2CN(Cc2c(-c4ccc(C(C)C)cc4)nc4ncccn24)C3)n1 tested on human TASK-1 (Homo sapiens (Human)).
Response: 910

Query: Recall the reported IC50 of O=C(Nc1ccc(F)cc1F)N1C2CCC1CN(Cc1c(-c3ccc(Cl)cc3)nc3ncccn13)C2 when tested on human TASK-1 (Homo sapiens (Human)).
Response: 30000

Query: Report value only: IC50, human TASK-1 (Homo sapiens (Human)), O=C(c1ccccc1F)N1C2CCC1CN(Cc1c(-c3ccc(Cl)cc3)nc3ncccn13)C2
Response: 370

Query: Write down measured IC50 (human TASK-1 (Homo sapiens (Human))) for this molecule. CC(C)c1nc(C(=O)N2C3CCC2CN(Cc2c(-c4ccc(Cl)cc4)nc4ncccn24)C3)cs1
Response: 860

Query: Supply IC50 measured with human TASK-1 (Homo sapiens (Human)) for CCN(CC)C(=O)N1C2CCC1CN(Cc1c(-c3ccc(Cl)cc3)nc3ncccn13)C2 .
Response: 24

----------
# targetEntity: human TASK-1 (Homo sapiens (Human), UniProt O14649)
# assayComment: Inhibition of recombinant TASK-1 in stably transfected CHO cells (voltage-sensitive dye, KCl depolarization)
# Format: cell-based
# setupConditions: depolarization by 40 mM potassium chloride
# Experimental: B-2. Inhibition of Recombinant TASK-1 and TASK-3 In Vitro The investigations on the inhibition of the recombinant TASK-1 and TASK-3 channels were conducted using stably transfected CHO cells. […] 6 (5), 305-312 (2001); Molecular Devices FLIPR Application Note: Measuring membrane potential using the FLIPR® membrane potential assay kit on Fluorometric Imaging Plate Reader (FLIPR®) systems, http://www.moleculardevices.com/reagents-supplies/assay-kits/ion-channels/flipr-membrane-potential-assay-kits]. […]
Listing of recorded IC50 by entry.
Please make sure the unit comes right after the number.

The examples below pair each entry with its known result.
{"molecule": "CN(C)C(=O)N1C2CCC1CN(Cc1c(-c3ccc(Cl)cc3)nc3ncccn13)C2", "targetEntity": "human TASK-1 (Homo sapiens (Human), UniProt O14649)", "result": "5300 nM"}
{"molecule": "CCc1ccccc1NC(=O)N1C2CCC1CN(Cc1c(-c3ccc(Cl)cc3)nc3ncccn13)C2", "targetEntity": "human TASK-1 (Homo sapiens (Human), UniProt O14649)", "result": "3000 nM"}
{"molecule": "O=C(C1CCCC1)N1C2CCC1CN(Cc1c(-c3ccc(Cl)cc3)nc3ncccn13)C2", "targetEntity": "human TASK-1 (Homo sapiens (Human), UniProt O14649)", "result": "76 nM"}

Query: Assign IC50 to the following record: COc1ccc(F)c(C(=O)N2CC3CCC2CN3Cc2c(-c3ccc(C(C)C)cc3)nc3ncccn23)n1 (stereo not drawn) [Example 71]
Response: 14000 nM

Query: Quote IC50 reported for O=C(Nc1cc(C(F)(F)F)ccc1Cl)N1C2CCC1CN(Cc1c(-c3ccc(Cl)cc3)nc3ncccn13)C2 please.
Response: 31000 nM

----------
# targetEntity: human TASK-1 (Homo sapiens (Human), UniProt O14649)
# assayComment: Inhibition of recombinant TASK-1 in stably transfected CHO cells (voltage-sensitive dye, KCl depolarization)
# Assay type: cell-based
# setupConditions: depolarization by 40 mM potassium chloride
recordedMetric: pIC50
pIC50 here is simply -log10 of the concentration when that concentration is written in mol/L.

Record excerpt, results attached:
{"compound": "O=C(c1ncoc1C1CC1)N1C2CCC1CN(Cc1c(-c3ccc(Cl)cc3)nc3ncccn13)C2 [Example 53]", "pIC50": 6.21}
{"compound": "CC(C)c1ccc(-c2nc3ncccn3c2CN2CC3CCC2CN3C(=O)c2cccc(OC(F)F)n2)cc1 (stereo not shown) [Example 76]", "pIC50": 4.89}
{"compound": "CC(C)(C)OC(=O)N1C2CCC1CN(Cc1c(-c3ccc(C4CC4)cc3)nc3ncccn13)C2 [Example 132]", "pIC50": 5.77}

Let us examine a further case.
Query: Identify the reported pIC50 for the following entry. Cc1scnc1C(=O)N1C2CCC1CN(Cc1c(-c3ccc(Cl)cc3)nc3ncccn13)C2 [Example 59]
Response: 5.52
